System under test: T1, human TREM2 (human) (UniProt Q9NZC2)
T1 sequence (looked up): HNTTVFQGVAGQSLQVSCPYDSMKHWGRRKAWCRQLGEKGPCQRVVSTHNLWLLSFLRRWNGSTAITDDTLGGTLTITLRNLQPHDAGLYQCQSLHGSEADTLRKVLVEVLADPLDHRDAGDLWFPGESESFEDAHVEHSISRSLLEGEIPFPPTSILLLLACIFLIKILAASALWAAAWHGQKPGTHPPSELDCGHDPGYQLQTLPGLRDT
Experiment summary: 2nd screen, 2 nM Ab
Each entry falls into one class according to its Binding Signal (fold over 6E7 parental antibody); the ranges are range 1: < 2 fold; range 2: ≥ 2 fold and < 4 fold; range 3: ≥ 4 fold

See these solved cases before continuing.
1. 6E7 variant V37 (antibody, V domains shown) VH: EVQLVQSGAEVKKPGESLKISCKGSGYSHTSYWIAWVRQMPGKGLEWMGIIYPGDSDTRYSPSFAGQVTISADKSISTAYLQWSSLKASDTAMYFCARSRTFYYDSSDYFDYWGQGTLVTVSS VL: DIQMTQSPSSVSASVGDRVTITCRASQGISSWLAWYQQKPGKAPKLLIYAASSLQWGVPSRFSGSGSGTDFTLTISSLQPEDFATYFCQQADSYPRTFGQGTKLEIK | range 2
2. 6E7 variant V28 (antibody, V domains shown) VH: EVQLVQSGAEVKKPGESLKISCKGSGYSFQSYWIAWVRQMPGKGLEWMGTIYPGDSDTRYSPSFQGQVTISADKSISTAYLQWSSLKASDTAMYFCARQRTFFYDSSDYFDYWGQGTLVTVSS VL: DIQMTQSPSSVSASVGDRVTITCRASQGISSWLAWYQQKPGKAPKLLIYAASSLQSGVPSRFSGSGSGTDFTLTISSLQPEDFATYFCQQADSLPRTFGQGTKLEIK | range 2
3. 6E7 variant V89 (antibody, V domains shown) VH: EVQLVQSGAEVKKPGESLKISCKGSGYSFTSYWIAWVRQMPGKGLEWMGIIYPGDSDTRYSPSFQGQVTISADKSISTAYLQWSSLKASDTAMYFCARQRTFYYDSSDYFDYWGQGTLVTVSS VL: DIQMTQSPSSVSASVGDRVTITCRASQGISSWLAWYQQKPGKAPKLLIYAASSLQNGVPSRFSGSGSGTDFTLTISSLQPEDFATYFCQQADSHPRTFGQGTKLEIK | range 1
4. 6E7 variant V2 (antibody, V domains shown) VH: EVQLVQSGAEVKKPGESLKISCKGSGSSFTSYWIAWVRQMPGKGLEWMGIIYPGDGDTRYSPSFQGQVTISADKSISTAYLQWSSLKASDTAMYFCARSRTFYYDSSDYFDYWGQGTLVTVSS VL: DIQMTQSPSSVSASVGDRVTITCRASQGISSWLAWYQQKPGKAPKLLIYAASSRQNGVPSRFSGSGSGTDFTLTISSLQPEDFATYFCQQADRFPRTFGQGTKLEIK | range 2

Looking at 6E7 variant V41 (antibody, V domains shown) VH: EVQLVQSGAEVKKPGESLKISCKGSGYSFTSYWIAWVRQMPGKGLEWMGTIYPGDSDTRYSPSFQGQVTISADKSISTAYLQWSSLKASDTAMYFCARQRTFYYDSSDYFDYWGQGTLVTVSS VL: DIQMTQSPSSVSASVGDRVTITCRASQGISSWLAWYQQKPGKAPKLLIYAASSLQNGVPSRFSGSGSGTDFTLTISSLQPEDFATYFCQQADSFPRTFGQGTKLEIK , which class would you pick? range 1

Looking at 6E7 variant V27 (antibody, V domains shown) VH: EVQLVQSGAEVKKPGESLKISCKGSGYSFTSYWIAWVRQMPGKGLEWMGIIYPGDSDTRYAPSFQGQVTISADKSISTAYLQWSSLKASDTAMYFCVRSRTFYYDSSDYFDYWGQGTLVTVSS VL: DIQMTQSPSSVSASVGDRVTITCRASQGISSWLAWYQQKPGKAPKLLIYAASSLQRGVPSRFSGSGSGTDFTLTISSLQPEDFATYFCQQADSFPRTFGQGTKLEIK , which class would you pick? range 3

Looking at 6E7 variant V73 (antibody, V domains shown) VH: EVQLVQSGAEVKKPGESLKISCKGSGYSFGSYWIAWVRQMPGKGLEWMGIIYPGDSDTRYSPGFQGQVTISADKSISTAYLQWSSLKASDTAMYFCARGRTFYYDSSDYFDYWGQGTLVTVSS VL: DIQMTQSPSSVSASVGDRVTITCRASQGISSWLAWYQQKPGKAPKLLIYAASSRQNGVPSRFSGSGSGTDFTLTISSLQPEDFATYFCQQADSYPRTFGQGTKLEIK , which class would you pick? range 3

Looking at 6E7 variant V48 (antibody, V domains shown) VH: EVQLVQSGAEVKKPGESLKISCKGSGYSFGSYWIAWVRQMPGKGLEWMGIIYPGDSDVRYSPSFQGQVTISADKSISTAYLQWSSLKASDTAMYFCARMRTFYYDSSDYFDYWGQGTLVTVSS VL: DIQMTQSPSSVSASVGDRVTITCRASQGISSWLAWYQQKPGKAPKLLIYAASSLQTGVPSRFSGSGSGTDFTLTISSLQPEDFATYFCQQADSLPRTFGQGTKLEIK , which class would you pick? range 2

Looking at 6E7 variant V53 (antibody, V domains shown) VH: EVQLVQSGAEVKKPGESLKISCKGSGYSFTSYWIAWVRQMPGKGLEWMGIIYPGDSDTRYSPHFQGQVTISADKSISTAYLQWSSLKASDTAMYFCARQRTFYYDSSDYFDYWGQGTLVTVSS VL: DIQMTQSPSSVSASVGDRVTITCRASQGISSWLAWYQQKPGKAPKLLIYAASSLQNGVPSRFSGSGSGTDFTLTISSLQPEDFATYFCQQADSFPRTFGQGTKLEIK , which class would you pick? range 1

Looking at 6E7 variant V86 (antibody, V domains shown) VH: EVQLVQSGAEVKKPGESLKISCKGSGYSFGSYWLAWVRQMPGKGLEWMGIIYPGDSDTRYSPSFEGQVTISADKSISTAYLQWSSLKASDTAMYFCARSRTFYYDSSDYFDYWGQGTLVTVSS VL: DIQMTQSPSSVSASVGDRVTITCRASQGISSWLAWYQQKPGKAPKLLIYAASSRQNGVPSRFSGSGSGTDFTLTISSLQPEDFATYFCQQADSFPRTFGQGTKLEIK , which class would you pick? range 3
